test: Human HepG2 cell viability assay in 384 well format; type: toxicity, cell-based; parameters: dose 125 nL, time 70.5 hour; concentration not given beside the values; conditions: HepG2 cells, read-out: Inhibition
Reported cytotoxicity at 70.5 h values follow for various compounds
Kindly provide the numeric value in % only, without the unit symbol.

Some solved cases for reference:
[
  {
    "compound": "Cc1nc(-c2ccsc2)ccc1C(=O)N(C)CC1CC1",
    "assay.readout": "cytotoxicity at 70.5 h",
    "data.value": -7.16
  },
  {
    "compound": "CN(C)c1nc(CNC(=O)N[C@H](CO)c2ccccc2)cs1",
    "assay.readout": "cytotoxicity at 70.5 h",
    "data.value": 30.7
  },
  {
    "compound": "Cn1cccc1C(=O)N1CCN2C[C@H](Oc3cccnc3)C[C@H]2C1",
    "assay.readout": "cytotoxicity at 70.5 h",
    "data.value": 21.7
  },
  {
    "compound": "COCCc1noc(CN2CCCC2c2noc(C(C)C)n2)n1 (stereo unspecified)",
    "assay.readout": "cytotoxicity at 70.5 h",
    "data.value": 17.1
  },
  {
    "compound": "CCc1ncnc2c1CCN(c1ncc(F)cn1)CC2",
    "assay.readout": "cytotoxicity at 70.5 h",
    "data.value": -7.64
  }
]

With those in mind, consider the next compound.
The compound listed as `Cc1nc2cc(C3CCN(C(=O)c4ccccn4)CC3)nn2c(O)c1C` shows cytotoxicity at 70.5 h equal to 44.6
